# Tested system: HLA-A*3101 (human)
# Assay protocol: competitive inhibition of 125I-labelled probe peptide binding to purified HLA; relative to standard peptide
Quantity name: binding affinity ratio (IC50 of standard peptide / IC50 of test peptide)
Lab note: record the figure alone, no unit after it.

NLEDPASR (modifications not checked) [HBV NUC 75 peptide NLEDPASR] : -0.0009

Q: Request the reported binding affinity ratio (IC50 of standard peptide / IC50 of test peptide) associated with LTVNEKRR (modifications not checked) [HBV POL 99 peptide LTVNEKRR]
Ans: -0.0009

Q: // lookup binding affinity ratio (IC50 of standard peptide / IC50 of test peptide) for LLAACFAR (modifications not checked) [HBV POL 719 peptide LLAACFAR]
Ans: 0.0015

Q: Request the reported binding affinity ratio (IC50 of standard peptide / IC50 of test peptide) associated with KAGILYKR (modifications not checked) [HBV POL 153 peptide KAGILYKR]
Ans: 0.0015

Q: Quick one: binding affinity ratio (IC50 of standard peptide / IC50 of test peptide) of GMDIDPYK (modifications not checked) [HBV NUC 29 peptide GMDIDPYK] ?
Ans: -0.0009

Q: Any idea what binding affinity ratio (IC50 of standard peptide / IC50 of test peptide) was measured for GIHLNPNKTK (modifications not checked) [HBV POL 567 peptide …] ?
Ans: 0.0009

Q: Which binding affinity ratio (IC50 of standard peptide / IC50 of test peptide) is listed for ISCLTFGR (modifications not checked) [HBV NUC 105 peptide ISCLTFGR] ?
Ans: 0.0017
